Origin of values: paper PMC8329502

Molecular target: cytochrome P450 1A2 (CYP1A2) (Homo sapiens, UniProt P05177)
Sequence (P05177 2-516): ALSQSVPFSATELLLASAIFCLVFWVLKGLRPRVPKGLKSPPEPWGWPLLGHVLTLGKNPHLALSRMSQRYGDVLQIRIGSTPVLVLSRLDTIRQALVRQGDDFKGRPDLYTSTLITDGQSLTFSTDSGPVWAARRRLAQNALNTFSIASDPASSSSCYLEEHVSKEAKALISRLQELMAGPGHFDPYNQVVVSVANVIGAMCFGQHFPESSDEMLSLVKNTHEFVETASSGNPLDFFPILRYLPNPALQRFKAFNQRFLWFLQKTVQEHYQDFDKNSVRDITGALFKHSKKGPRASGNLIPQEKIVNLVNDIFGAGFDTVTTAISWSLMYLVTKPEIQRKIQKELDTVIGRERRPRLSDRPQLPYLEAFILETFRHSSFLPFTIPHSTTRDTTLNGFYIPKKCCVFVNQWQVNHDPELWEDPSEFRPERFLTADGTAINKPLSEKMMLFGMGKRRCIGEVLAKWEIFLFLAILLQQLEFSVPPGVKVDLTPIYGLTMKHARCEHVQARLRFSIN
Assay: […]-caffeine 3-N-demethylation in 50-donor pooled human liver microsomes
Format: biochemical
endpoint: IC50 (nM)

[A] COc1c2ccoc2c(OC)c2oc(=O)ccc12
[B] COc1c2ccoc2cc2oc(=O)ccc12
Lab note: record which item had the higher IC50, A or B . Bench note: the answer is the label of the chosen record.
A
